- Test system: EKVX NSCLC
- experiment-summary: NCI tumour cell line growth inhibition, 48 h
TGI values for the molecules below.

Some solved entries appear below for comparison.
Cc1nnc2sc(N/N=C/c3ccccc3)nn12 = > 100 µM
O=[N+]([O-])/C=C/c1ccc([N+](=O)[O-])cc1 = 31.8 µM
CN(C)CCn1c(=O)c2ccc3c4c(nn3CCN(C)C)c3ccccc3n(c1=O)c24 = 0.112 µM

Consider the molecule NC(=O)CS(=O)CC(N)C(=O)O (stereo unspecified) and give its measured TGI.
> 100 µM

Consider the molecule `Cc1c(O)c(=O)ccn1CCO` and give its measured TGI.
> 100 µM

Consider the molecule CC(C)=CC1CC(C)C2(CCC3(C)CC4C(C(=O)CC4(C)O)/C(C=O)=C\CC32)O1 (stereo unspecified) and give its measured TGI.
0.346 µM

Consider the molecule `COc1cc(/C=C/C(=O)OC[C@H](Br)[C@H](OC(C)=O)c2ccc3c(c2)OCO3)cc(OC)c1OC` and give its measured TGI.
> 100 µM

Consider the molecule `COc1ccc2c(c1)C(=O)c1c-2n(CCCN2CCOCC2)c(=O)c2cc([N+](=O)[O-])ccc12` and give its measured TGI.
12 µM

Consider the molecule `COc1ccc(C2=C(c3cc(OC)c(OC)c(OC)c3)C(=O)OC2)cc1OC` and give its measured TGI.
> 100 µM

Consider the molecule `COc1ccc(/C=C2\CN(C)Cc3c2[nH]c(=O)c(C#N)c3-c2ccc(OC)cc2)cc1` and give its measured TGI.
> 100 µM

Consider the molecule `COc1cc(CNc2nc3cc(C(F)(F)F)ccc3nc2C)cc(OC)c1OC` and give its measured TGI.
67.4 µM

----------
- Test system: MCF7 breast
- experiment-summary: NCI tumour cell line growth inhibition, 48 h; in the data active = GI50 below about 0.43 µM; inactive = the rest
Answer with one of the outcomes active, inactive

I would be grateful if you could indicate the recorded call for `CN1C(=O)C(c2c[nH]c3ccccc23)=C(c2c(-c3c[nH]c4ccccc34)[nH]c3ccccc23)C1=O` .
inactive

I would be grateful if you could indicate the recorded call for COc1ccc2c(c1)[C@@]1(C)CCC3c4ccc(O)cc4CCC3C1C2 (stereo not given in full) .
inactive

I would be grateful if you could indicate the recorded call for `COc1ccc(-c2csc3c2-n2cccc2C3=O)cc1O` .
active

I would be grateful if you could indicate the recorded call for `COc1cc2c(cc1OCCCN1CCN(c3cc(=O)oc4c(C)c(OC)ccc34)CC1)N=C[C@@H]1CCCN1C2=O` .
inactive

I would be grateful if you could indicate the recorded call for `COc1cc2c3c(n(C)c(=O)c2cc1OC)-c1cc2c(cc1/C3=C/[C@H](N)CCCCN)OCO2` .
inactive

----------
TGI values for the compounds below.
- System: SK-MEL-5 melanoma
- experiment-summary: NCI tumour cell line growth inhibition, 48 h
Express the result in µM but write the number alone.

Some solved entries appear below for comparison.
COc1ccc(-c2ccccc2)cc1-c1c(Nc2cc(Cl)cc(Cl)c2O)c(=O)c1=O = 2.25
COc1cc(-c2nc3nc(N4CCN(C)CC4)ccc3[nH]2)c(OC)c2[nH]c(COC(C)=O)nc12 = 35.6
CCOC(=O)C1=C(c2ccccc2)N(c2ccc(OC)cc2)[C@]2(C#N)C(O)=C(Cl)C(Cl)=C(O)[C@]12C#N = 51.9
NC1=C(Cl)C(=O)c2ccccc2C1=O = 2.09
Cc1cc(C)c2c(N)c3cccc(C)c3nc2n1 = 2.74

TGI of `Cc1ccc(/C(=C/C=C(C#N)C#N)Sc2ccccn2)cc1` on SK-MEL-5 melanoma?
7.55

----------
TGI values for the compounds below.
- Tested on: SR leukemia
- experiment-summary: NCI tumour cell line growth inhibition, 48 h
Express the result in µM but write the number alone.

Some solved entries appear below for comparison.
CC(C)C(C/C=C1\CC(CO)(COC(=O)CC(C(C)C)C(C)C)OC1=O)C(C)C (stereo not given) = 31.6
O=C1C(N=Nc2ccc(-c3nc4ccccc4[nH]3)cc2)NC(=S)N1c1ccccc1 (stereo not given) = 15.3

Attention now turns to another entry.
Consider the compound CCC(C)C1(O)OC2CC3(C)OC(=CC3=O)/C(C)=C\C3OC(=O)C1(C)C32 (stereo not given) and give its measured TGI.
73.5

----------
- System: KM12 colon
- experiment-summary: NCI tumour cell line growth inhibition, 48 h; in the data active = GI50 below about 0.43 µM; inactive = the rest
Answer with one of the outcomes Yes for active, No for inactive

Answered cases to consult:
NC1=NC(c2ccc(F)cc2)C2=C(N1)c1ccc3ccccc3c1OCC2 (stereo not given) = No
COc1cc2c3c(n(CCCNCCNCCCN)c(=O)c2cc1OC)-c1cc2c(cc1C3=O)OCO2 = No
COC(=O)[C@@H]1CCCN1C(=O)[C@H]1CCCN1C(=O)[C@@H](Cc1c[nH]c2ccccc12)NC(=S)Nc1cc(C(F)(F)F)cc(C(F)(F)F)c1 = No

I would be grateful if you could indicate the recorded call for `COc1ccc2c(c1)C(=O)c1c-2n(CCCN2CCOCC2)c(=O)c2cc([N+](=O)[O-])ccc12` .
Yes

I would be grateful if you could indicate the recorded call for `Cc1cc2nc3c4cccc(O)c4n(CCN(C)C)c3nc2cc1C` .
No

----------
- Tested on: SF-268 CNS
- experiment-summary: NCI tumour cell line growth inhibition, 48 h
GI50 values for the compounds below.

CCN1CCC(CC(=O)Nc2n[nH]c3nc(-c4cccs4)c(Br)cc23)CC1 = 11.5 µM

Consider the compound `O=C(Nc1cccc(-n2ccc3c(NC(=O)c4ccccc4)nccc32)c1)c1cc(N2CCOCC2)cc(C(F)(F)F)c1` and give its measured GI50.
0.264 µM

Consider the compound `CN1C(=O)C(c2c[nH]c3ccccc23)=C(c2c(-c3c[nH]c4ccccc34)[nH]c3ccccc23)C1=O` and give its measured GI50.
4.07 µM

Consider the compound CC(=O)OC12CC(C)C3(O)C4C=C(C)C(=O)[C@@]4(O)CC(CO)=C[C@H]3C1C2(C)C (stereo partly specified) and give its measured GI50.
> 1000 µM

Consider the compound `Cc1cc(NC(=O)NC(=O)c2ccccc2NC(=O)CN)ccc1Oc1ncc(Br)cn1` and give its measured GI50.
0.608 µM

Consider the compound `Cc1ccc(C[P+](c2ccccc2)(c2ccccc2)c2ccccc2)cc1` and give its measured GI50.
2.7 µM

Consider the compound `COc1ccc(/C=C\c2cc(OC)c(OC)c(OC)c2)cc1OCC(=O)Nc1nc2ccc(OC(F)(F)F)cc2s1` and give its measured GI50.
6.01 µM

Consider the compound `COc1cc(-c2n/c(=C\c3c(O)[nH]c4ccccc34)cc3c2=Nc2ccccc2-3)cc(OC)c1OC` and give its measured GI50.
1.39 µM

Consider the compound `COc1cc(OC)cc(-c2cncn2-c2ccc(-c3nc4cc(OC)cc(OC)c4s3)cc2)c1` and give its measured GI50.
11.3 µM

Consider the compound CC(C)CCC[C@@H](C)[C@H]1CCC2C3=CCC4C(=O)C=CC(=O)C4C3CC[C@@]21C (stereo partly specified) and give its measured GI50.
0.566 µM

Consider the compound `Oc1cc(Cl)ccc1Cc1ccc(Cl)cc1O` and give its measured GI50.
9.44 µM

Consider the compound `OCc1ccc(Oc2c3ccccc3nc3occc23)cc1` and give its measured GI50.
20.6 µM

Consider the compound `CCC(=O)c1ccc2c(c1)N(CCCN1CCN(CCO)CC1)c1ccccc1S2` and give its measured GI50.
15.4 µM

Consider the compound Cc1ccccc1C(C(=O)NC1CCCCC1)N(C(=O)Cn1ccnc1C)c1cccc(F)c1 (stereo unspecified) and give its measured GI50.
> 66.5 µM

Consider the compound `C=C(C)[C@@H]1CC[C@]2(C(=O)NCCNCCNCCN)CC[C@]3(C)[C@H](CC[C@@H]4[C@@]5(C)CCC(=O)C(C)(C)[C@@H]5CC[C@]43C)[C@@H]12` and give its measured GI50.
7.53 µM

Consider the compound `O=C1C=CC(=O)c2c1ncc1c2nc2sccn21` and give its measured GI50.
18.5 µM

Consider the compound NC1=NC(c2ccc(F)cc2)C2=C(N1)c1ccc3ccccc3c1OCC2 (stereo unspecified) and give its measured GI50.
18.2 µM

Consider the compound `Cc1ccc(Oc2nc3ccccc3cc2-c2nnc(Cn3c(COc4ccccc4)nc4ccccc43)o2)cc1` and give its measured GI50.
3.41 µM

Consider the compound `COc1cc2ncn(-c3cc(OCc4ccccc4S(C)(=O)=O)c(C#N)s3)c2cc1OC` and give its measured GI50.
> 22.7 µM

Consider the compound Cc1ccc2[nH]c(C(=O)NN3C(=O)C(C)SC34CCCCC4C)c(-c3ccccc3)c2c1 (stereo unspecified) and give its measured GI50.
18.8 µM

Consider the compound `COc1ccc2c(c1)C(=O)c1c-2n(CCCN2CCOCC2)c(=O)c2cc([N+](=O)[O-])ccc12` and give its measured GI50.
< 0.01 µM

----------
- System: OVCAR-8 ovarian
- experiment-summary: NCI tumour cell line growth inhibition, 48 h; in the data active means GI50 below about 0.43 µM; inactive means the rest
Answer with one of the outcomes y (active), n (inactive)

CCC(=O)c1ccc2c(c1)N(CCCN1CCN(CCO)CC1)c1ccccc1S2 = n

I would be grateful if you could indicate the recorded call for `COc1ccc(-n2c3c(c4c(CN(C)C)c(O)c(C)cc42)CCc2ccccc2C3=O)cc1` .
n

I would be grateful if you could indicate the recorded call for `COc1cc2c(cc1OC)-c1c(c3ccc([N+](=O)[O-])cc3c(=O)n1CCCN)C2=O` .
n

I would be grateful if you could indicate the recorded call for `Cc1cc(C)c2c(N)c3cccc(C)c3nc2n1` .
n

I would be grateful if you could indicate the recorded call for `CCCCCCN1CCN(Cc2ccc(N(CC)CC)cc2)C(=O)C1=O` .
n

I would be grateful if you could indicate the recorded call for `COc1ccc2[nH]cc(-c3nc(-c4c[nH]c5ccncc45)cs3)c2c1` .
n

I would be grateful if you could indicate the recorded call for `CCC[CH2][Sn]1([CH2]CCC)[O]C(=O)CN=Cc2ccccc2[O]1` .
y

I would be grateful if you could indicate the recorded call for `O=C(/C=C\c1ccc2ccccc2n1)c1cc(Cl)ccc1O` .
n

I would be grateful if you could indicate the recorded call for `COc1ccc(C2=C(c3cc(OC)c(OC)c(OC)c3)C(=O)OC2)cc1OC` .
y

I would be grateful if you could indicate the recorded call for CN(C)CC(NC(NCS)C(=O)NCCNc1ccc(NCCNC(=O)C(NCS)NC(CN(C)C)OCCl)c2c1C(=O)c1c(O)ccc(O)c1C2=O)OCCl (stereo not given) .
y
